Origin of the recorded values: patent EP0771801B1

# subject of test: 5-HT1a (Homo sapiens, UniProt P08908)
# Sequence (P08908 1-422): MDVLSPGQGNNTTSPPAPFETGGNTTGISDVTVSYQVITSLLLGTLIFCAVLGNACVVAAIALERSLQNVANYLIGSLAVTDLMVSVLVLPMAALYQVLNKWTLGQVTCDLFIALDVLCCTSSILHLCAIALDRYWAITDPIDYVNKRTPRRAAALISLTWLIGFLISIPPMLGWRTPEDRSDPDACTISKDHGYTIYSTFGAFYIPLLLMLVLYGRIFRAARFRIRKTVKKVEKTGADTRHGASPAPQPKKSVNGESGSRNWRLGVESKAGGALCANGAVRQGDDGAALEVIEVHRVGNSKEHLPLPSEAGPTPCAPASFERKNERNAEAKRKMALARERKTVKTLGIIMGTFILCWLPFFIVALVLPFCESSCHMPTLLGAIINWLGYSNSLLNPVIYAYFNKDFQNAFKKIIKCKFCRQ
# protocol description: 5-HT1a binding (method not described)
# recorded conditions: IC50 (nM) 5-HT1a.
readout: IC50 (nM)

INSERT INTO measurements (molecule, subject_of_test, readout, numeric_readout) VALUES
  ('Cc1ccc(CNCC2CCc3ccc4c(c3O2)CC(=O)N4)c(C)c1 (stereo not shown) [Example 1f]', '5-HT1a (Homo sapiens, UniProt P08908)', 'IC50', 15);
